# target-entity: T1, Macaca fascicularis (mf) RET.mmh (Macaca fascicularis)
# T1 construct: also called monkey RET
# T1 chain: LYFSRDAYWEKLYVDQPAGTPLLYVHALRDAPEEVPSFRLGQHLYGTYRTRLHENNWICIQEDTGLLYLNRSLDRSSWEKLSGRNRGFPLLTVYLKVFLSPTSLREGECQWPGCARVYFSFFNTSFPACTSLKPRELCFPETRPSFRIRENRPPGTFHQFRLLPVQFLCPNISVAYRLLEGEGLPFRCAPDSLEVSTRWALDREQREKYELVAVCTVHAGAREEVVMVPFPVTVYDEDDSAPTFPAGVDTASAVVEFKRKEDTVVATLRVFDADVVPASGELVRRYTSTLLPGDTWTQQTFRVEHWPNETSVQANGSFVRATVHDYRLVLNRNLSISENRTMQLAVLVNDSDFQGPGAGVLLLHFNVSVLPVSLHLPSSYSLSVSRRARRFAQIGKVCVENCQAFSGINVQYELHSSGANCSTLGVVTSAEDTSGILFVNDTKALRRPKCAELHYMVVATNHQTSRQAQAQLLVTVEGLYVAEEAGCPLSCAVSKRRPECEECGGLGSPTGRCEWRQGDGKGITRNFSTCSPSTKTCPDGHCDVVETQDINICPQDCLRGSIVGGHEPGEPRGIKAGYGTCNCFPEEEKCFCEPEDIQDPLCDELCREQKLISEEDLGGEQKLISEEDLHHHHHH
# experiment-notes: SPR Biacore T200, mAb capture, 37 C

binder	t½
H4H8085P (antibody, human IgG4, V domains shown, human IgG4 Fc (H4H prefix)) VH: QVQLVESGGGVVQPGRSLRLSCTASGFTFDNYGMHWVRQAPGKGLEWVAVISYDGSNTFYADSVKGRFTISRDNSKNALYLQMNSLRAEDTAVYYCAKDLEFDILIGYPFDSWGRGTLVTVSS VL: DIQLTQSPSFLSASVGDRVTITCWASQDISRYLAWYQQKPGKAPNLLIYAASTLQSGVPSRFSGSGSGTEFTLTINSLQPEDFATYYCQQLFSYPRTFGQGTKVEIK	9 min
H4H8062P (antibody, human IgG4, V domains shown, human IgG4 Fc (H4H prefix)) VH: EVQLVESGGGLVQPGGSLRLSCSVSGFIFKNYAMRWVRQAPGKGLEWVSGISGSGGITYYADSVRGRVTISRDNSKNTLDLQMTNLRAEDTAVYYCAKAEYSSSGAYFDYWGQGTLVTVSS VL: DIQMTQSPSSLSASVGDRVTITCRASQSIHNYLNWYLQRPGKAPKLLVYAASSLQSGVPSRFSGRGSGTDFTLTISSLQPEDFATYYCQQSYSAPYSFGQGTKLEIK	3 min
H4H8058P (antibody, human IgG4, V domains shown, human IgG4 Fc (H4H prefix)) VH: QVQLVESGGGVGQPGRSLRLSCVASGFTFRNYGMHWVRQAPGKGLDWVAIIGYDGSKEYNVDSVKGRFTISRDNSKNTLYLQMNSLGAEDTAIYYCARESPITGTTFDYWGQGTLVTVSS VL: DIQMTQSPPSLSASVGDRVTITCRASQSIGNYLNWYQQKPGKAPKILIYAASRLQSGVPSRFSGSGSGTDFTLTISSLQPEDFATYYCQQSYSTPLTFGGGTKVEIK	5 min
H4H8087P (antibody, human IgG4, V domains shown, human IgG4 Fc (H4H prefix)) VH: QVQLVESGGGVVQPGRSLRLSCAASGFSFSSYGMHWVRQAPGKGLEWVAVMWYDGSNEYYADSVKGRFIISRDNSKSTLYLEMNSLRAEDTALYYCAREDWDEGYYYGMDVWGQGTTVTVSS VL: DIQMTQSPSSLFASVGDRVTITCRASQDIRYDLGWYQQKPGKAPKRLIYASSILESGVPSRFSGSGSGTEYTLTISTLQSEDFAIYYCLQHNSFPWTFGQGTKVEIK	9 min
H4H8060P (antibody, human IgG4, V domains shown, human IgG4 Fc (H4H prefix)) VH: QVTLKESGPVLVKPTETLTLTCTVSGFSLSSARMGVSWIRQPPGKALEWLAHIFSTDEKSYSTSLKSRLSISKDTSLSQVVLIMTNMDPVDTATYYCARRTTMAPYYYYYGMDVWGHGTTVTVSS VL: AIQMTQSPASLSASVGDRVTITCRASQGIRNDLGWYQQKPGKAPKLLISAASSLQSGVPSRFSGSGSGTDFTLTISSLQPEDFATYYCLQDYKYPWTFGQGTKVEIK	6 min

The reported numbers originate from patent US20220185900A1.
